Could you please report measured pIC50 for the items listed next?
assay system: recombinant human c-Kit (D816V) (Homo sapiens, UniProt P10721, D816V)
Sequence (P10721 26-976 D816V): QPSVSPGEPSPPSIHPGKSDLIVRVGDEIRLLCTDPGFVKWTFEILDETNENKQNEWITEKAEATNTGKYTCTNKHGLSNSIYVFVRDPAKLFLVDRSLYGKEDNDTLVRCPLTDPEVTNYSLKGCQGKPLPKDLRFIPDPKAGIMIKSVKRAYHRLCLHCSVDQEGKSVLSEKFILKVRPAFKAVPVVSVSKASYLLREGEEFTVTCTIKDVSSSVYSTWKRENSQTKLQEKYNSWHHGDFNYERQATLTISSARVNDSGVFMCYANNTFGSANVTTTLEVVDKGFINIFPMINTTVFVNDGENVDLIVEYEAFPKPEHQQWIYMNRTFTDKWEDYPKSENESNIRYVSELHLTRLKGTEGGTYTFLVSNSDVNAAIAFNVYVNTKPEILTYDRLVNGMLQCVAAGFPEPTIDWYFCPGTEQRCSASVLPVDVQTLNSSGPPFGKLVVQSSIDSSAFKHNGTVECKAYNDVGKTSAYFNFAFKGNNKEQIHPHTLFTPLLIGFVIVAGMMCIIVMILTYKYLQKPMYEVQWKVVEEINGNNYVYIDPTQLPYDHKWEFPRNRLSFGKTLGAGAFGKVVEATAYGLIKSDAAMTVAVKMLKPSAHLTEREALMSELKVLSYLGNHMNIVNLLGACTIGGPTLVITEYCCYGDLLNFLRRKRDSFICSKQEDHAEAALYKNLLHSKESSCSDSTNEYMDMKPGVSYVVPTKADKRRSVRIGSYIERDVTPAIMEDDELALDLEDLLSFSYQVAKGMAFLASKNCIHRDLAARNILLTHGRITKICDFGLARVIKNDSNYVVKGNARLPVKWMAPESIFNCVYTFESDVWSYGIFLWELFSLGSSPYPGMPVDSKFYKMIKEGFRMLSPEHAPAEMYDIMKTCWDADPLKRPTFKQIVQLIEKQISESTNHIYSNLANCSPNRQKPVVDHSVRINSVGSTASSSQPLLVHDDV
experiment: c-Kit (D816V) Kinase Assay (ADP-Glo)
measurement parameters: In vitro kinase activity
pIC50: −log10 of the molar value.

smiles structure	observed value
O=C(Nc1cn2cc(-c3cccc(F)c3COCCO)ccc2n1)[C@@H]1C[C@@H]1F	< 6.00
COCCOCc1c(F)cccc1-c1ccc2nc(NC(=O)[C@@H]3C[C@@H]3F)cn2c1	< 6.00
CNCc1c(F)cccc1-c1ccc2nc(NC(=O)[C@@H]3C[C@@H]3F)cn2c1	< 6.00
CC(C)NCc1c(F)cccc1-c1ccc2nc(NC(=O)[C@@H]3C[C@@H]3F)cn2c1	< 6.00
O=C(Nc1cn2cc(-c3cccc(F)c3CO)ccc2n1)[C@@H]1C[C@@H]1F	6.00 to 7.00

Hi team, please reply with pIC50 for each item in this list.
1. O=C(Nc1cn2cc(-c3cccc(F)c3-c3ccco3)ccc2n1)[C@@H]1C[C@@H]1F
2. CC(=O)c1c(F)cccc1-c1ccc2nc(NC(=O)[C@@H]3C[C@@H]3F)cn2c1
3. NCc1c(F)cccc1-c1ccc2nc(NC(=O)[C@@H]3C[C@@H]3F)cn2c1
4. COCc1c(F)cccc1-c1ccc2nc(NC(=O)[C@@H]3C[C@@H]3F)cn2c1
5. CN(C)Cc1c(F)cccc1-c1ccc2nc(NC(=O)[C@@H]3C[C@@H]3F)cn2c1
6. CC(=O)NCc1c(F)cccc1-c1ccc2nc(NC(=O)[C@@H]3C[C@@H]3F)cn2c1

[reply]
1: < 6.00; 2: < 6.00; 3: < 6.00; 4: < 6.00; 5: < 6.00; 6: < 6.00

====

assay system: recombinant human c-Kit (Homo sapiens)
Sequence (P10721 26-976): as the sequence (P10721 26-976 D816V) above, with V791D counted along it
experiment: c-Kit Kinase Assay (ADP-Glo)
measurement parameters: In vitro kinase activity
pIC50: −log10 of the molar value.
parameter: pIC50

Some solved cases for reference:
compound	pIC50
CC(=O)NCc1c(F)cccc1-c1ccc2nc(NC(=O)[C@@H]3C[C@@H]3F)cn2c1 [Example 75]	< 6.00
NCc1c(F)cccc1-c1ccc2nc(NC(=O)[C@@H]3C[C@@H]3F)cn2c1 [Example 74]	< 6.00
O=C(Nc1cn2cc(-c3cccc(F)c3-c3ccco3)ccc2n1)[C@@H]1C[C@@H]1F [Example 65]	< 6.00
CN(C)Cc1c(F)cccc1-c1ccc2nc(NC(=O)[C@@H]3C[C@@H]3F)cn2c1 [Example 84]	< 6.00
O=C(Nc1cn2cc(-c3cccc(F)c3COCCO)ccc2n1)[C@@H]1C[C@@H]1F [Example 83]	< 6.00

Please give pIC50, item by item, for the list that follows.
1. CC(=O)c1c(F)cccc1-c1ccc2nc(NC(=O)[C@@H]3C[C@@H]3F)cn2c1 [Example 68]
2. O=C(Nc1cn2cc(-c3cccc(F)c3CO)ccc2n1)[C@@H]1C[C@@H]1F [Example 57]

[reply]
1. < 6.00
2. < 6.00

====

assay system: recombinant human PDGFRα (Homo sapiens)
Sequence (P16234 24-1089): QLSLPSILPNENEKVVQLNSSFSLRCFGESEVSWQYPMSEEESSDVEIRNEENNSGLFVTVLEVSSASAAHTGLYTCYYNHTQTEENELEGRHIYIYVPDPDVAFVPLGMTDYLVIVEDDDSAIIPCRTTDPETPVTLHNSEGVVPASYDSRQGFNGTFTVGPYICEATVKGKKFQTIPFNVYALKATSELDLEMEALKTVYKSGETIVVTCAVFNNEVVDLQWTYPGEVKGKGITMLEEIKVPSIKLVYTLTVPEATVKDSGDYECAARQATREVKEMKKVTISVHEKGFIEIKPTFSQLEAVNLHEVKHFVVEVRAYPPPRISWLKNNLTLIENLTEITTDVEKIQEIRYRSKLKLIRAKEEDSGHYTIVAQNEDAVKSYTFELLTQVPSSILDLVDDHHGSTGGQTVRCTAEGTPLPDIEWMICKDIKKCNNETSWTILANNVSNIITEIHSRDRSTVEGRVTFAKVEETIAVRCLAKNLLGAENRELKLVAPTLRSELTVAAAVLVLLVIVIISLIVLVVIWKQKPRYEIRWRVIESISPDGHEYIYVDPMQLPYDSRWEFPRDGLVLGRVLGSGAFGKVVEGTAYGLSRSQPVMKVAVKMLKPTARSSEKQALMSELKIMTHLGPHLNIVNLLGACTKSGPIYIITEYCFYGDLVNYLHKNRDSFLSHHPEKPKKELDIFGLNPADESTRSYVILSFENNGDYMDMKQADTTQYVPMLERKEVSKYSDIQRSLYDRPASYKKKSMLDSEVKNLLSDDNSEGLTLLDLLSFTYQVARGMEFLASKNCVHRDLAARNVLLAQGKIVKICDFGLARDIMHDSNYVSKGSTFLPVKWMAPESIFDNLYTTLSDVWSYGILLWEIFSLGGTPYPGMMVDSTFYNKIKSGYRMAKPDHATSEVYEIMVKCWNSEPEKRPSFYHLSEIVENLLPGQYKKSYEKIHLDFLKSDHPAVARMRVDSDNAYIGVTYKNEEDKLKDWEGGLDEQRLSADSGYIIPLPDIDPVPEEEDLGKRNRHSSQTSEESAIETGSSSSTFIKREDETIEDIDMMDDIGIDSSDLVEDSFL
experiment: PDGFRα Kinase Assay (ADP-Glo)
measurement parameters: In vitro kinase activity, read-out: PDGFRa IC50
parameter: IC50

// worked examples, IC50 included
smiles structure	assay system	observed value
COCc1c(F)cccc1-c1ccc2nc(NC(=O)[C@@H]3C[C@@H]3F)cn2c1	recombinant human PDGFRα (Homo sapiens)	> 1000 nM
O=C(Nc1cn2cc(-c3cccc(F)c3-c3ccco3)ccc2n1)[C@@H]1C[C@@H]1F	recombinant human PDGFRα (Homo sapiens)	> 1000 nM
COCCOCc1c(F)cccc1-c1ccc2nc(NC(=O)[C@@H]3C[C@@H]3F)cn2c1	recombinant human PDGFRα (Homo sapiens)	101 to 1000 nM
CNCc1c(F)cccc1-c1ccc2nc(NC(=O)[C@@H]3C[C@@H]3F)cn2c1	recombinant human PDGFRα (Homo sapiens)	> 1000 nM
CC(C)NCc1c(F)cccc1-c1ccc2nc(NC(=O)[C@@H]3C[C@@H]3F)cn2c1	recombinant human PDGFRα (Homo sapiens)	> 1000 nM
CC(=O)c1c(F)cccc1-c1ccc2nc(NC(=O)[C@@H]3C[C@@H]3F)cn2c1	recombinant human PDGFRα (Homo sapiens)	> 1000 nM
CC(=O)NCc1c(F)cccc1-c1ccc2nc(NC(=O)[C@@H]3C[C@@H]3F)cn2c1	recombinant human PDGFRα (Homo sapiens)	> 1000 nM
O=C(Nc1cn2cc(-c3cccc(F)c3COCCO)ccc2n1)[C@@H]1C[C@@H]1F	recombinant human PDGFRα (Homo sapiens)	101 to 1000 nM
O=C(Nc1cn2cc(-c3cccc(F)c3CO)ccc2n1)[C@@H]1C[C@@H]1F	recombinant human PDGFRα (Homo sapiens)	101 to 1000 nM

Proceed to the following item.
[ask] Consider the compound NCc1c(F)cccc1-c1ccc2nc(NC(=O)[C@@H]3C[C@@H]3F)cn2c1 and give its measured IC50.
[reply] > 1000 nM

====

assay system: recombinant human PDGFRα (D842V) (Homo sapiens, UniProt P16234, D842V)
Sequence (P16234 24-1089 D842V): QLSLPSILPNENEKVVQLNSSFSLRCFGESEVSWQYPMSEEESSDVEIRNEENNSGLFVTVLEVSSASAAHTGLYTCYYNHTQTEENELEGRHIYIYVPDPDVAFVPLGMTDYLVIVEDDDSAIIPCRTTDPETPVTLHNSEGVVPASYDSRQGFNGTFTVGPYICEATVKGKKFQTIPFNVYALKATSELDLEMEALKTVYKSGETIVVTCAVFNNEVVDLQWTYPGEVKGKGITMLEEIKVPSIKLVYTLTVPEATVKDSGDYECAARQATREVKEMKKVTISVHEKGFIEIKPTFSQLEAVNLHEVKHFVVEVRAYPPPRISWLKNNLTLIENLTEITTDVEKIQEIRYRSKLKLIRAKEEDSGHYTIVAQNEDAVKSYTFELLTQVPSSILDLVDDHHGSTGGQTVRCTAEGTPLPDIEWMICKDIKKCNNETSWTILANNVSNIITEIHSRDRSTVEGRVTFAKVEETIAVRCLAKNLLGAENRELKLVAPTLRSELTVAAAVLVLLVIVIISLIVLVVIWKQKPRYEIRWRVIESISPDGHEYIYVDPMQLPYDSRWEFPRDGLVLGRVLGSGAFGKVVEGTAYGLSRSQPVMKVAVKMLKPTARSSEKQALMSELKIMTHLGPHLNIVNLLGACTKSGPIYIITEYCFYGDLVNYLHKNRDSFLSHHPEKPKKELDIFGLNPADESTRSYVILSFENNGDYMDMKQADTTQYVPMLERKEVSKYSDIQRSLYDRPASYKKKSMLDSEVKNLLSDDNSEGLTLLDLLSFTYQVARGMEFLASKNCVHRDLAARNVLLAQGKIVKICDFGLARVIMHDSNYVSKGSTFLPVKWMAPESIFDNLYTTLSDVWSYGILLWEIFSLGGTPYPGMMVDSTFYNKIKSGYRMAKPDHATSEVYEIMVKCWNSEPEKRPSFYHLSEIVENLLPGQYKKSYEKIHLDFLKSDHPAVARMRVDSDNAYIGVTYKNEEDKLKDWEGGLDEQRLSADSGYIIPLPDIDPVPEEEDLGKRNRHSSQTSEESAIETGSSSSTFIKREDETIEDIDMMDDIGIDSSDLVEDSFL
experiment: PDGFRα (D842V) Kinase Assay (ADP-Glo)
measurement parameters: In vitro kinase activity
parameter: IC50

Consider the worked cases shown below.
smiles structure	IC50
O=C(Nc1cn2cc(-c3cccc(F)c3COCCO)ccc2n1)[C@@H]1C[C@@H]1F	101 to 1000 nM
COCCOCc1c(F)cccc1-c1ccc2nc(NC(=O)[C@@H]3C[C@@H]3F)cn2c1	101 to 1000 nM
CC(C)NCc1c(F)cccc1-c1ccc2nc(NC(=O)[C@@H]3C[C@@H]3F)cn2c1	> 1000 nM
O=C(Nc1cn2cc(-c3cccc(F)c3CO)ccc2n1)[C@@H]1C[C@@H]1F	10 to 100 nM
CC(=O)NCc1c(F)cccc1-c1ccc2nc(NC(=O)[C@@H]3C[C@@H]3F)cn2c1	> 1000 nM
NCc1c(F)cccc1-c1ccc2nc(NC(=O)[C@@H]3C[C@@H]3F)cn2c1	> 1000 nM

Below are 4 compounds. Give each one its IC50.
1. O=C(Nc1cn2cc(-c3cccc(F)c3-c3ccco3)ccc2n1)[C@@H]1C[C@@H]1F
2. CNCc1c(F)cccc1-c1ccc2nc(NC(=O)[C@@H]3C[C@@H]3F)cn2c1
3. COCc1c(F)cccc1-c1ccc2nc(NC(=O)[C@@H]3C[C@@H]3F)cn2c1
4. CC(=O)c1c(F)cccc1-c1ccc2nc(NC(=O)[C@@H]3C[C@@H]3F)cn2c1

[reply]
1: > 1000 nM; 2: > 1000 nM; 3: 101 to 1000 nM; 4: > 1000 nM
